These data points were gathered from patent US8673882B2.

assayedTarget: UniProt Q6UWR7
Sequence (Q6UWR7 23-419, species assumed): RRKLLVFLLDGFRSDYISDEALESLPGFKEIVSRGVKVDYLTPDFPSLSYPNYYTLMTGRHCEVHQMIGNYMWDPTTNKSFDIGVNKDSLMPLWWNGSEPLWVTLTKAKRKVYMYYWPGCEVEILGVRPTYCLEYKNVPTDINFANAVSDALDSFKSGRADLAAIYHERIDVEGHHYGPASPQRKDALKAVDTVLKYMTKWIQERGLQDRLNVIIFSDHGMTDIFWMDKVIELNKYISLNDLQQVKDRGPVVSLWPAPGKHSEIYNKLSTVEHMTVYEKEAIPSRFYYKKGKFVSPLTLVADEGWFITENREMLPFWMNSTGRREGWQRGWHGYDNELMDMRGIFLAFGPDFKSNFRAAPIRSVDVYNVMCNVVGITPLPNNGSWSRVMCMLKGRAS
assayDetails: NPP-6 inhibition assay (pNPPC substrate)
Type: biochemical
assaySetup: 10 μM compound; 8.3 nM enzyme; 10 μM pNPPC; read-out: NPP6 Activity, % control (10 μM)
experimentalEndpoint: remaining activity at 10 µM (%)
Please reply with the bare figure in % and do not write the unit itself.

Recorded results for 7 compounds are shown here.
CCCCCCCCCCCCCCCc1ccc(COP(O)(O)=S)cc1
98.8
CCCCCCCCCCCCCCCCS(=O)(=O)Nc1ccc(CP(=O)(O)O)cc1
102
CCCCCCCCCCCCCCCc1ccc(C(Cl)P(=O)(O)O)cc1 (centres unmarked)
101
CCCCCCCCCCCCCC(=O)Nc1ccc(CP(=O)(O)O)cc1 [Compound S32826, reference compound]
102
CCCCCCCCCCCCCCOc1ccc(CP(=O)(O)O)cc1
102
CCCCCCCCCCC/C=C/c1ccc2cc(CP(=O)(O)O)ccc2c1 [Compound 30b]
104
CCCCCCCCCCCCCCCc1ccc(CP(=O)(O)O)cc1
96.5

Now examine the next entry.
Ask: Write down measured remaining activity at 10 µM (UniProt Q6UWR7) for this compound. CCCCCCCCCC/C=C/c1ccc2cc(CP(=O)(O)O)ccc2c1 [Compound 30a]
Result: 103

###

assayedTarget: recombinant, purified human ATX (Homo sapiens, UniProt Q13822)
assayDetails: Mechanism of autotaxin inhibition (IC50, Ki, Ki′; FS-3 hydrolysis)
Assay type: biochemical
assaySetup: affinity for free enzyme
pKi: −log10 of the molar value.
Please note: rule met applies when pKi is 6 or greater, and rule not met applies otherwise.

CCCCCCCCCCCCCCCc1ccc(COP(O)(O)=S)cc1
rule not met
CCCCCCCCCCCCCCCc1ccc(C(Br)P(=O)(O)O)cc1 (stereo not drawn)
rule not met
CCCCCCCCCCCCCCCc1ccc(CP(=O)(O)O)cc1
rule met

Ask: Test whether the compound CCCCCCCCCCCCCCCc1ccc(C(F)P(=O)(O)O)cc1 (stereo not drawn) records pKi of 6 or higher.
Result: rule not met

Ask: Test whether the compound CCCCCCCCCCCCCCCc1ccc(C(O)P(=O)(O)O)cc1 (stereo not drawn) records pKi of 6 or higher.
Result: rule met

###

assayedTarget: recombinant, purified human ATX (Homo sapiens, UniProt Q13822)
assayDetails: Mechanism of autotaxin inhibition (IC50, Ki, Ki′; FS-3 hydrolysis)
Format: biochemical
assaySetup: FS-3 0.3 μM to 20 μM; inhibitor 0, 0.5× and 2× IC50
experimentalEndpoint: ATX Mechanism of inhibition

Recorded results for 5 molecules are shown here.
CCCCCCCCCCCCCCCc1ccc(C(F)P(=O)(O)O)cc1 (stereo not drawn) [Compound 41]
Mixed
CCCCCCCCCCC/C=C/c1ccc2cc(CP(=O)(O)O)ccc2c1 [Compound 30b]
MIXED
CCCCCCCCCCCCCCCc1ccc(CP(=O)(O)O)cc1 [Compound 22, 4-Pentadecylbenzylphosphonic acid]
Mixed
CCCCCCCCCCCCCCCc1ccc(C(Br)P(=O)(O)O)cc1 (stereo not drawn) [Compound 43]
Mixed
CCCCCCCCCCCCCCCc1ccc(C(O)P(=O)(O)O)cc1 (stereo not drawn) [Compound 37]
Mixed

Ask: For CCCCCCCCCCCCCCCc1ccc(COP(O)(O)=S)cc1 [Compound 47] , write its ATX Mechanism of inhibition.
Result: Mixed

###

assayedTarget: NPP7 (Homo sapiens, UniProt Q6UWV6)
Sequence (Q6UWV6 22-458): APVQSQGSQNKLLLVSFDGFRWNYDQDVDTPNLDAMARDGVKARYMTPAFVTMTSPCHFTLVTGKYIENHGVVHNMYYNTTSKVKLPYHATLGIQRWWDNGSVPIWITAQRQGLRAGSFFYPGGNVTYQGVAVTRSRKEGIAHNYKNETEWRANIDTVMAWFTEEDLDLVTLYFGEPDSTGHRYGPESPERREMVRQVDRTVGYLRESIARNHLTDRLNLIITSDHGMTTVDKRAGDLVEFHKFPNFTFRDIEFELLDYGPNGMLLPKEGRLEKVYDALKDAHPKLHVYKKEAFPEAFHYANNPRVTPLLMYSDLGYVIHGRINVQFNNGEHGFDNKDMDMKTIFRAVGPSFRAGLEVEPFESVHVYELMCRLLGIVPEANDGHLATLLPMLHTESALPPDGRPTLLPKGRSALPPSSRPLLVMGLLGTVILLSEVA
assayDetails: NPP-7 inhibition assay (pNPPC substrate)
Assay type: biochemical
assaySetup: 10 μM compound; 8.3 nM enzyme; 10 μM pNPPC; read-out: NPP7 Activity, % control (10 μM)
Catalogue of compounds with associated remaining activity at 10 µM
Please reply with the bare figure in % and do not write the unit itself.

Recorded results for 5 compounds are shown here.
CCCCCCCCCCCCCCCc1ccc(C(O)P(=O)(O)O)cc1 (centres unmarked) [Compound 37]
101
CCCCCCCCCCCCCCCCS(=O)(=O)Nc1ccc(CP(=O)(O)O)cc1 [Compound 4]
93.5
CCCCCCCCCC/C=C/c1ccc2cc(CP(=O)(O)O)ccc2c1 [Compound 30a]
100
CCCCCCCCCCCCCCCc1ccc(C(Br)P(=O)(O)O)cc1 (centres unmarked) [Compound 43]
99.5
CCCCCCCCCCCCCCCc1ccc(C(F)P(=O)(O)O)cc1 (centres unmarked) [Compound 41]
103

Ask: For CCCCCCCCCCCCCC(=O)Nc1ccc(CP(=O)(O)O)cc1 [Compound S32826, reference compound] , write its remaining activity at 10 µM.
Result: 101

Ask: For CCCCCCCCCCCCCCCc1ccc(COP(=O)(O)O)cc1 [Compound 45, 4-pentadecylbenzyl dihydrogen phosphate] , write its remaining activity at 10 µM.
Result: 98.8

Ask: For CCCCCCCCCCCCCCOc1ccc(CP(=O)(O)O)cc1 [Compound 10, 4-(Tetradecyloxy)benzylphosphonic acid] , write its remaining activity at 10 µM.
Result: 101
